Values compiled from patent US7951814B2.

Assay: Plasma levels after oral dosing in the rat pain models
Format: in vivo
Details: Sprague-Dawley, rat, plasma, oral; 10 mg/kg, p.o.; male SD rats; AITC model; read-out: Plasma levels at 2 h
Endpoint name: concentration at 2 h (ng/mL)

• Cn1c(=O)c2c(CC(=O)Nc3nc(-c4ccc(Cl)cc4)cs3)cccc2n(C)c1=O = 7380

---

Biological target: Human TRPA1 expressing CHO cells (Homo sapiens)
Construct: expressed in transfected cells; host or cells: CHO cells (under G-418 selection)
Test: 45Calcium uptake assay: inhibition of AITC induced cellular uptake of radioactive calcium
Format: cell-based
Settings: 10.0 μM test compound; AITC 30 μM; human TRPA1 CHO cells; read-out: Percentage inhibition at 10.0 μM
inhibition at 10 µM listing for selected compounds.
Endpoint name: inhibition at 10 µM (%)

* CCOC(=O)n1c(=O)[nH]c2cccc(CC(=O)Nc3nc(-c4ccc(Cl)cc4)cs3)c2c1=O | 6.54
* CC(C)c1ccc(-c2csc(NC(=O)Cc3cccc4c3c(=O)n(C)c(=O)n4C)n2)cc1 | 98
* COc1c(F)cc(-c2csc(NC(=O)Cc3cccc4c3c(=O)n(C)c(=O)n4C)n2)cc1F | 98.9
* Cn1c(=O)c2c(CC(=O)Nc3nc(-c4ccc(F)cc4Cl)cs3)cccc2n(C)c1=O | 99.8
* Cn1c(=O)c2c(CC(=O)Nc3nc(-c4cccc(C(F)(F)F)c4)cs3)cccc2n(C)c1=O | 100
* Cn1c(=O)c2c(CC(=O)Nc3cccc(-c4ccc(Cl)cc4)n3)cccc2n(C)c1=O | 95.2
* CCc1ccc(-c2csc(NC(=O)Cc3cccc4c3c(=O)n(C)c(=O)n4C)n2)cc1 | 96.9
* Cn1c(=O)c2c(CC(=O)Nc3nc(-c4cc(F)cc(F)c4)cs3)cccc2n(C)c1=O | 85

---

inhibition at 1 µM listing for selected compounds.
Molecular target: Human TRPA1 expressing CHO cells (Homo sapiens, UniProt O75762)
Construct: expressed in transfected cells; host or cells: CHO cells (under G-418 selection)
Sequence (O75762 whole entry): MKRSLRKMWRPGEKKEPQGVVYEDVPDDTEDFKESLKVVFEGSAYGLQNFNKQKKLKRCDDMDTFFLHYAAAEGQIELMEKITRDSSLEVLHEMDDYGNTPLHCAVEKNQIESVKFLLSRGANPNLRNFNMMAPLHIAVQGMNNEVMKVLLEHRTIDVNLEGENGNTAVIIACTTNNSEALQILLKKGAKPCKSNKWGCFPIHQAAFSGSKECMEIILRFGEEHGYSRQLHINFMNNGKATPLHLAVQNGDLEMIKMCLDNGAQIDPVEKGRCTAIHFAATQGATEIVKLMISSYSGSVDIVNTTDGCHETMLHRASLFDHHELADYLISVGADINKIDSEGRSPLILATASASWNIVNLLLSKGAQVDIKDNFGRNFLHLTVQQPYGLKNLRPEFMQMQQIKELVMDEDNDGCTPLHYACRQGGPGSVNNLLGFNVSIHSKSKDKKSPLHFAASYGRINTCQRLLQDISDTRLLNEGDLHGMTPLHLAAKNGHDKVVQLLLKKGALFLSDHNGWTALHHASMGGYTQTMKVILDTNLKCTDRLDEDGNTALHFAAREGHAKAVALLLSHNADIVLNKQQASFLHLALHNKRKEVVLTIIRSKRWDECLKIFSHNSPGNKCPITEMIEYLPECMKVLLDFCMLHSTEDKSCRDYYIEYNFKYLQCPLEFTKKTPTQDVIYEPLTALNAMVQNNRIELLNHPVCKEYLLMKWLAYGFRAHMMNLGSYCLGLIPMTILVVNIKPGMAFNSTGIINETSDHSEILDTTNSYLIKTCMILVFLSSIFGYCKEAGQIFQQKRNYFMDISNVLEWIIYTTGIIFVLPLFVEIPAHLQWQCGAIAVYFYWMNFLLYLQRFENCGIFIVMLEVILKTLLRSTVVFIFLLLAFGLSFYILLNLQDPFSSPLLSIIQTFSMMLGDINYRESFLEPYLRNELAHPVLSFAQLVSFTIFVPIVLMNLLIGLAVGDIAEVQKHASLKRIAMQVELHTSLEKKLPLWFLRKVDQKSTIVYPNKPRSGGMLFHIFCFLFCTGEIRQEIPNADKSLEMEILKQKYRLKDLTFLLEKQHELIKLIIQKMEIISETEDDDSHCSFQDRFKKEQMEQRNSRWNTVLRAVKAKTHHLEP
Test: 45Calcium uptake assay: inhibition of AITC induced cellular uptake of radioactive calcium
Type: cell-based
Settings: 1.0 μM test compound; AITC 30 μM; human TRPA1 CHO cells; read-out: Percentage inhibition at 1.0 μM
Endpoint name: inhibition at 1 µM (%)

- Cn1c(=O)c2c(CC(=O)Nc3nc(-c4cc(F)c(OCC5CC5)c(F)c4)cs3)cccc2n(C)c1=O: 95.4
- Cn1c(=O)c2c(CC(=O)Nc3nc(-c4cccc(Cl)c4F)cs3)cccc2n(C)c1=O: 95.3
- Cn1c(=O)c2c(CC(=O)Nc3nc(-c4ccc(Cl)c(C(F)(F)F)c4)cs3)cccc2n(C)c1=O: 100
- Cn1c(=O)c2c(CC(=O)Nc3ccc(-c4ccc(Cl)cc4)cn3)cccc2n(C)c1=O: 52.2
- Cn1c(=O)c2c(CC(=O)Nc3nc(-c4cc(F)cc(F)c4)cs3)cccc2n(C)c1=O: 15.8
- Cn1c(=O)c2c(CC(=O)Nc3nc(-c4cccc(C(F)(F)F)c4)cs3)cccc2n(C)c1=O: 98
- Cn1c(=O)c2c(CC(=O)Nc3nc(-c4ccc(C(F)(F)F)cc4F)cs3)cccc2n(C)c1=O: 95.1
- COc1ccc(-c2csc(NC(=O)Cc3cccc4c3c(=O)n(C)c(=O)n4C)n2)cc1F: 5.71
- Cn1c(=O)c2c(CC(=O)Nc3nc(-c4cc(F)c(OC(F)F)c(F)c4)cs3)cccc2n(C)c1=O: 99.9
- Cn1c(=O)c2c(CC(=O)Nc3nc(-c4cc(C(F)(F)F)ccc4Cl)cs3)cccc2n(C)c1=O: 85
- Cn1c(=O)c2c(CC(=O)Nc3ccc(-c4ccc(Br)cc4)cc3)cccc2n(C)c1=O: 25.3
- Cn1c(=O)c2c(CC(=O)Nc3nc(-c4cc(Cl)ccc4Cl)cs3)cccc2n(C)c1=O: 84.3
- CCn1c(=O)c2c(CC(=O)Nc3nc(-c4ccc(Cl)cc4)cs3)cccc2n(CC)c1=O: 20.4
- Cn1c(=O)c2c(CC(=O)Nc3nc(-c4cc(C(F)(F)F)ccc4F)cs3)cccc2n(C)c1=O: 82.7
- Cn1c(=O)c2c(CC(=O)Nc3nc(-c4ccc(C(C)(C)C)cc4)cs3)cccc2n(C)c1=O: 98.9
- Cn1c(=O)c2c(CC(=O)Nc3nc(-c4ccc(C(F)(F)F)c(F)c4F)cs3)cccc2n(C)c1=O: 99.4
- Cn1c(=O)c2c(CC(=O)Nc3nc(-c4ccc(F)c(F)c4)cs3)cccc2n(C)c1=O: 53.7
- Cn1c(=O)c2c(CC(=O)Nc3nc(-c4ccc(F)cc4F)cs3)cccc2n(C)c1=O: 90.1
- CC(C)CCOc1ccc(-c2csc(NC(=O)Cc3cccc4c3c(=O)n(C)c(=O)n4C)n2)cc1: 93
- Cn1c(=O)c2c(CC(=O)Nc3nc(-c4cccc(F)c4F)cs3)cccc2n(C)c1=O: 76.8
- Cn1c(=O)c2c(CC(=O)Nc3nc(-c4ccc(OCC5CC5)c(F)c4)cs3)cccc2n(C)c1=O: 1.31
- Cn1c(=O)c2c(CC(=O)Nc3nc(-c4ccc(F)c(Cl)c4)cs3)cccc2n(C)c1=O: 98.6
- Cn1c(=O)c2c(CC(=O)Nc3cc(-c4ccc(Cl)cc4)n[nH]3)cccc2n(C)c1=O: 3.81
- Cn1c(=O)c2c(CC(=O)Nc3nc(-c4ccc(OC(F)(F)F)c(F)c4)cs3)cccc2n(C)c1=O: 74.4
- Cn1c(=O)c2c(CC(=O)Nc3nc(-c4ccc(I)cc4)cs3)cccc2n(C)c1=O: 79.2
- CC(C)c1ccc(-c2csc(NC(=O)Cc3cccc4c3c(=O)n(C)c(=O)n4C)n2)cc1: 95.3
- Cc1cc(-c2csc(NC(=O)Cc3cccc4c3c(=O)n(C)c(=O)n4C)n2)ccc1Cl: 94.2
- Cn1c(=O)c2c(CC(=O)Nc3nc(-c4ccc(C(F)(F)F)cc4)cs3)cccc2n(C)c1=O: 97.9
- COc1ccc(-c2csc(NC(=O)Cc3cccc4c3c(=O)n(C)c(=O)n4C)n2)cc1: 30
- Cn1c(=O)n(CC2CC2)c(=O)c2c(CC(=O)Nc3nc(-c4ccc(C(F)(F)F)c(F)c4)cs3)cccc21: 25
- CCCn1c(=O)c2c(CC(=O)Nc3nc(-c4cccc(C(F)(F)F)c4)cs3)cccc2n(CCC)c1=O: 13.6

---

inhibition at 10 µM listing for selected molecules.
Target: Human TRPA1 expressing CHO cells (Homo sapiens, UniProt O75762)
Construct: expressed in transfected cells; host or cells: CHO cells (under G-418 selection)
Assay: 45Calcium uptake assay: inhibition of AITC induced cellular uptake of radioactive calcium
Assay type: cell-based
Conditions: 10.0 μM test compound; AITC 30 μM; human TRPA1 CHO cells; read-out: Percentage inhibition at 10.0 μM
Endpoint name: inhibition at 10 µM

- Cn1c(=O)c2c(CC(=O)Nc3nc(-c4ccc(Cl)c(C(F)(F)F)c4)cs3)cccc2n(C)c1=O: 100%
- Cn1c(=O)c2c(CC(=O)Nc3nc(-c4ccc(C(F)(F)F)c(F)c4)cs3)cccc2n(C)c1=O: 99.4%
- CC(C)Cc1ccc(-c2csc(NC(=O)Cc3cccc4c3c(=O)n(C)c(=O)n4C)n2)cc1: 99.7%
- Cn1c(=O)c2c(CC(=O)Nc3nc(-c4ccc(F)c(F)c4)cs3)cccc2n(C)c1=O: 66.3%
- Cn1c(=O)c2c(CC(=O)Nc3cc(-c4ccc(Cl)cc4)n[nH]3)cccc2n(C)c1=O: 8.12%
- Cn1c(=O)c2c(CC(=O)Nc3nc(-c4c[nH]c5ccccc45)cs3)cccc2n(C)c1=O: 72.6%
- Cn1c(=O)c2c(CC(=O)Nc3nc(-c4ccc(C(F)(F)F)cc4F)cs3)cccc2n(C)c1=O: 100%
- Cn1c(=O)c2c(CC(=O)Nc3nc(-c4cn(C)c5ccccc45)cs3)cccc2n(C)c1=O: 97.7%

---

Target: Human TRPA1 expressing CHO cells (Homo sapiens, UniProt O75762)
Construct: expressed in transfected cells; host or cells: CHO cells (under G-418 selection)
Assay: 45Calcium uptake assay: inhibition of AITC induced cellular uptake of radioactive calcium
Type: cell-based
Conditions: 1.0 μM test compound; AITC 30 μM; human TRPA1 CHO cells; read-out: Percentage inhibition at 1.0 μM
Endpoint name: inhibition at 1 µM (%)

• Cn1c(=O)c2c(CC(=O)Nc3nc(-c4c[nH]c5ccccc45)cs3)cccc2n(C)c1=O = 32.5
• Cn1c(=O)c2c(CC(=O)Nc3nc(-c4cccc(Cl)c4)cs3)cccc2n(C)c1=O = 95.5
• CCOC(=O)n1c(=O)[nH]c2cccc(CC(=O)Nc3nc(-c4ccc(Cl)cc4)cs3)c2c1=O = 2.8

---

Biological target: Human TRPA1 expressing CHO cells (Homo sapiens)
Construct: expressed in transfected cells; host or cells: CHO cells (under G-418 selection)
Assay: 45Calcium uptake assay: inhibition of AITC induced cellular uptake of radioactive calcium
Format: cell-based
Details: 1.0 μM test compound; AITC 30 μM; human TRPA1 CHO cells; read-out: Percentage inhibition at 1.0 μM
Label 1 (yes) when inhibition at 1 µM is at or above 50%; otherwise label 0 (no).

* Cn1c(=O)c2c(CC(=O)Nc3nc(-c4cc(Cl)cc(Cl)c4)cs3)cccc2n(C)c1=O | 1 (yes)
* Cn1c(=O)c2c(CC(=O)Nc3nc(-c4ccc(F)c(C(F)(F)F)c4F)cs3)cccc2n(C)c1=O | 1 (yes)
* Cn1c(=O)c2c(CC(=O)Nc3nc4ccc(F)cc4s3)cccc2n(C)c1=O | 0 (no)
* Cn1c(=O)c2c(CC(=O)Nc3nc(-c4cc(F)c(OCC(F)(F)F)c(F)c4)cs3)cccc2n(C)c1=O | 1 (yes)
* Cn1c(=O)c2c(CC(=O)Nc3nc(-c4c(F)ccc(C(F)(F)F)c4F)cs3)cccc2n(C)c1=O | 1 (yes)
* Cn1c(=O)c2c(CC(=O)Nc3nc(-c4ccc(C5CCCCC5)cc4)cs3)cccc2n(C)c1=O | 1 (yes)
* Cn1c(=O)c2c(CC(=O)Nc3nc(-c4ccc(F)c(OC(F)(F)F)c4)cs3)cccc2n(C)c1=O | 1 (yes)
* Cn1c(=O)c2c(CC(=O)Nc3nc(-c4c(F)cccc4Cl)cs3)cccc2n(C)c1=O | 0 (no)
* Cn1c(=O)c2c(CC(=O)Nc3nc(-c4ccc(F)cc4)cs3)cccc2n(C)c1=O | 0 (no)
* Cn1c(=O)c2c(CC(=O)Nc3nc(-c4ccc(Br)cc4)cs3)cccc2n(C)c1=O | 1 (yes)
* COc1c(F)cc(-c2csc(NC(=O)Cc3cccc4c3c(=O)n(C)c(=O)n4C)n2)cc1F | 1 (yes)
* Cn1c(=O)c2c(CC(=O)Nc3nc(-c4ccc(Cl)cc4Cl)cs3)cccc2n(C)c1=O | 1 (yes)
* Cc1ccc(Oc2ccc(NC(=O)Cc3cccc4c3c(=O)n(C)c(=O)n4C)cc2)cc1 | 0 (no)
* Cn1c(=O)c2c(CC(=O)Nc3ccn(-c4cccc(C(F)(F)F)c4)n3)cccc2n(C)c1=O | 1 (yes)
* Cn1c(=O)c2c(CC(=O)Nc3nc(-c4cn(C)c5ccccc45)cs3)cccc2n(C)c1=O | 1 (yes)
